Source listed as the supplement of paper PMC10126150.

Recorded switch fluorescence ratio, one value per entry.
system: ATP; test: switch fluorescence ratio, 500 uM ATP over buffer (Cy3 cluster intensity, sum of 5 cycles each) (fold (ratio)); higher = stronger signal-on switching upon ATP binding; sequences stand for … in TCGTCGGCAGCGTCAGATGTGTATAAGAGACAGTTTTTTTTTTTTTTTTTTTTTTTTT…TC; conditions: aptamer strand: ATP DNA aptamer (quencher-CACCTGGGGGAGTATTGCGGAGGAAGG + anchor), 100 nM annealed; ATP concentration: 500 uM;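 further: ATP exposure 15 min at 22 °C before imaging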
Reply with just the number.

Reference set, count: 5
# SEQUENCE CODE, NUMERIC RESULT
records = [
    ("ATAGTGCTTG", 0.988),
    ("GGTTAGGGTG", 1.05),
    ("CGAGAGAGTG", 0.96),
    ("CGCTTAGGTT", 1.06),
    ("ATACTTGTAT", 1),
]

In: Complete the entry with switch fluorescence ratio for `GCTGGGATTG`
Out: 1.01

In: Complete the entry with switch fluorescence ratio for `GTTAGATGTT`
Out: 1

In: Complete the entry with switch fluorescence ratio for `ATTTACCGAA`
Out: 1.05

In: Complete the entry with switch fluorescence ratio for `AGAGGGGGGG`
Out: 0.999

In: Complete the entry with switch fluorescence ratio for `TTTTTGGGCT`
Out: 0.996

In: Complete the entry with switch fluorescence ratio for `CGGAAGGCAT`
Out: 1.04

In: Complete the entry with switch fluorescence ratio for `ATATGTGTTG`
Out: 0.992

In: Complete the entry with switch fluorescence ratio for `GTTCTAGTGT`
Out: 0.972

In: Complete the entry with switch fluorescence ratio for `TCGCTCCTGG`
Out: 1

In: Complete the entry with switch fluorescence ratio for `ATTAGTGCCG`
Out: 1.04

====

Recorded switch fluorescence ratio, one value per entry.
tested on: ATP; assay: switch fluorescence ratio, 500 uM ATP over buffer (Cy3 cluster intensity, sum of 5 cycles each) (fold (ratio)); higher = stronger signal-on switching upon ATP binding; sequences stand for … in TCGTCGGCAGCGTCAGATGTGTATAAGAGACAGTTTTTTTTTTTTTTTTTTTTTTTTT…TC; conditions: aptamer strand: ATP DNA aptamer (quencher-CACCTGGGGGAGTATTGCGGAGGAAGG + anchor), 100 nM annealed; ATP concentration: 500 uM;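 further: ATP exposure 15 min at 22 °C before imaging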
Reply with just the number.

Reference set, count: 3
# SEQUENCE CODE, switch fluorescence ratio
rows = [
    ("CCATTTTGTT", 0.984),
    ("TGGATCATAG", 0.999),
    ("GGGTTATTTT", 0.999),
]

Here is the next item to consider.
In: Complete the entry with switch fluorescence ratio for `TAGTGGGATT`
Out: 0.994

====

system: ATP; assay: switch fluorescence ratio, 500 uM ATP over buffer (Cy3 cluster intensity, sum of 5 cycles each) (fold (ratio)); higher = stronger signal-on switching upon ATP binding; sequences stand for … in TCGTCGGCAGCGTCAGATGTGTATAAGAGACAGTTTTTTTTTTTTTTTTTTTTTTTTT…TC; conditions: aptamer strand: ATP DNA aptamer (quencher-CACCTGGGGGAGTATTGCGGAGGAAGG + anchor), 100 nM annealed; ATP concentration: 500 uM;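 further: ATP exposure 15 min at 22 °C before imaging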
ATTRIBUTE MEASURED: switch fluorescence ratio
Reply with just the number.

# SEQUENCE CODE, switch fluorescence ratio
data = [
    ("TTTATGGGGG", 0.999),
    ("AATGTTAAGT", 0.994),
    ("AAGTTTGTCT", 1),
    ("ATTTTTAGGC", 1.11),
    ("GTGGGTATGG", 1),
    ("AGTTAGCTT", 1.02),
    ("TAGAGATTTT", 1),
    ("TAGATTCTGT", 0.995),
    ("TTTTTTATA", 0.996),
    ("CTGCGAATAA", 1.4),
]

In: Complete the entry with switch fluorescence ratio for `TCGGACGGAA`
Out: 2.17

In: Complete the entry with switch fluorescence ratio for `CCGTTAGTGG`
Out: 1.04

In: Complete the entry with switch fluorescence ratio for `GGGGTTGGAC`
Out: 0.985

In: Complete the entry with switch fluorescence ratio for `TCATGCCAAC`
Out: 1.03

In: Complete the entry with switch fluorescence ratio for `TACATGTGCT`
Out: 0.996

In: Complete the entry with switch fluorescence ratio for `TCGGTCACCA`
Out: 1.05

In: Complete the entry with switch fluorescence ratio for `TGACGGGGGT`
Out: 0.989

In: Complete the entry with switch fluorescence ratio for `AACGTGAGTG`
Out: 1.02

In: Complete the entry with switch fluorescence ratio for `ATCCAAATGG`
Out: 1.01
